- Test System: Cereblon/Casein kinase I alpha (Homo sapiens) (UniProt P48729+Q96SW2)
- Sequence (P48729 2-337 limits assumed): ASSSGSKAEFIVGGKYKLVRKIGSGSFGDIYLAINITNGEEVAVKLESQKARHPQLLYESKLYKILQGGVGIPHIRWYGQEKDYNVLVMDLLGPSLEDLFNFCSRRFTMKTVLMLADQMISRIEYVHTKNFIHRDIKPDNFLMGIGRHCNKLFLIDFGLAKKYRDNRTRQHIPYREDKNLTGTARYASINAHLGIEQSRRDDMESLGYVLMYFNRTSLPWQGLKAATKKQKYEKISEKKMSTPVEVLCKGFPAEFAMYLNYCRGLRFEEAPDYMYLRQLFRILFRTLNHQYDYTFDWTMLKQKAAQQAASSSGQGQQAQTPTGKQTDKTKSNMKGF
- Sequence (Q96SW2 whole entry partner, the tested form may be a part): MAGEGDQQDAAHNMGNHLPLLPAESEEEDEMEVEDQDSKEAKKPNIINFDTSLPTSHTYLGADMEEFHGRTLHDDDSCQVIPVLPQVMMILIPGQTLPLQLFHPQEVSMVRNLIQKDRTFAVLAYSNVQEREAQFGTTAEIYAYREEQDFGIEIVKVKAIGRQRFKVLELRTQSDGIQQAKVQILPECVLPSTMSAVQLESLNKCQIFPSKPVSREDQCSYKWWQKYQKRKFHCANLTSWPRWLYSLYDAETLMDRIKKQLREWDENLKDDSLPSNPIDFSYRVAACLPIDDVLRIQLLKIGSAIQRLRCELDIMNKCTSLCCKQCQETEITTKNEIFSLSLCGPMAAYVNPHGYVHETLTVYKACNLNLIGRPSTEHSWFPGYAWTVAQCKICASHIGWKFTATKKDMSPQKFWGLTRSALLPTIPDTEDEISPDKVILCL
- Measurement Description: PROTAC activity at CRBN/Hibit-fused CK1 alpha in human MV4-11 cells assessed as degradation of CK1-alpha incubated for 6 hrs by Nano-Glo HiBiT assay relative to control
- Assay type: cell-based
Examples of compounds with documented Emax follow.
The figure you give is taken to be in %; do not add the unit.

[
  {
    "Compound": "O=C(COc1cccc2c1C(=O)N(C1CCC(=O)NC1=O)C2=O)NCc1ccc(CC(=O)N2CCC(F)(Cn3cnc(-c4ccc(F)cn4)c3-c3ccnc4[nH]ccc34)CC2)cc1 (stereo not drawn)",
    "Emax, %": 19.7
  }
]

// next item, Emax requested
Reported Emax for O=C(CCOCCOCCN1CCC(F)(Cn2cnc(-c3ccc(F)cn3)c2-c2ccnc3[nH]ccc23)CC1)NCCNc1cccc2c1C(=O)N(C1CCC(=O)NC1=O)C2=O (stereo not drawn) : what is it? 25
